Every entry's value here was drawn from patent US20250186405A1.

assay: Part 2 MAD: plasma pharmacokinetics, once daily for 10 days; assay type: in vivo, human; settings: human, plasma, oral, 15 mg, Day 10, median; read-out: Tmax

{"columns": ["compound", "unit_name", "Tmax"],
 "data": [
  ["CS(=O)(=O)N[C@H]1CCCN2C(=O)COc3ccccc3C3CCC(CC3)OCC12 (stereo partly shown)", "h", 1.75]
]}

###

assay: Part 1 SAD: plasma pharmacokinetics after single oral dose; format: in vivo, human; conditions: human, plasma, oral; 25 mg single dose, median; read-out: Tmax

{"columns": ["molecule", "Tmax (h)"],
 "data": [
  ["CS(=O)(=O)N[C@H]1CCCN2C(=O)COc3ccccc3C3CCC(CC3)OCC12 (stereo partly shown)", 1]
]}

###

assay: Part 1 SAD: plasma pharmacokinetics after single oral dose; assay type: in vivo, human; settings: human, plasma, oral; 3 mg single dose, geometric mean
property_label: AUC(0-t) (ng·h/mL)

{"columns": ["compound", "reported_value"],
 "data": [
  ["CS(=O)(=O)N[C@H]1CCCN2C(=O)COc3ccccc3C3CCC(CC3)OCC12 (stereo partly shown)", 36.6]
]}

###

Assay: Part 2 MAD: plasma pharmacokinetics, once daily for 10 days
Type: in vivo, human
Conditions: human, plasma, oral, 8 mg, Day 1, geometric mean
Experimental: Part 2 of the study is a MAD evaluation in healthy subjects consisting of 4 cohorts: Cohorts 1-4 received powder-in-capsule or matching placebo. Dose levels were as follows: Blood samples (up to 5 mL per sample) were collected for PK analysis of Compound A and its metabolite(s). The actual time of sample collection was recorded. The PK samples of the subjects randomized to placebo treatment were not analyzed. […]

{"columns": ["compound", "unit_name", "Cmax"],
 "data": [
  ["CS(=O)(=O)N[C@H]1CCCN2C(=O)COc3ccccc3C3CCC(CC3)OCC12 (stereo partly shown)", "ng/mL", 16]
]}

###

test: Part 1 SAD: plasma pharmacokinetics after single oral dose; format: in vivo, human; settings: human, plasma, oral; 50 mg single dose, geometric mean, N = 2; read-out: Vz/F
property_label: Vd/F

{"columns": ["compound", "reported_value"],
 "data": [
  ["CS(=O)(=O)N[C@H]1CCCN2C(=O)COc3ccccc3C3CCC(CC3)OCC12 (stereo partly shown)", "1050 L"]
]}

###

test: Part 2 MAD: plasma pharmacokinetics, once daily for 10 days; format: in vivo, human; settings: 3 mg
property_label: Accumulation ratio (Day 10/Day 1) AUC0-24

{"columns": ["compound", "reported_value"],
 "data": [
  ["CS(=O)(=O)N[C@H]1CCCN2C(=O)COc3ccccc3C3CCC(CC3)OCC12 (stereo partly shown)", 1.36]
]}

###

assay: Part 2 MAD: plasma pharmacokinetics, once daily for 10 days; type: in vivo, human; conditions: human, plasma, oral; 3 mg, Day 10, geometric mean; read-out: Vz/F

{"columns": ["molecule", "Vd/F, L"],
 "data": [
  ["CS(=O)(=O)N[C@H]1CCCN2C(=O)COc3ccccc3C3CCC(CC3)OCC12 (stereo partly shown)", 862]
]}

###

test: Part 1 SAD: plasma pharmacokinetics after single oral dose; type: in vivo, human; conditions: human, plasma, oral; 3 mg single dose, geometric mean, N = 3
property_label: AUC(0-inf)

{"columns": ["molecule", "property_label", "reported_value"],
 "data": [
  ["CS(=O)(=O)N[C@H]1CCCN2C(=O)COc3ccccc3C3CCC(CC3)OCC12 (stereo partly shown)", "AUC(0-inf)", "31.4 ng·h/mL"]
]}

###

Assay: Part 6 IH: plasma pharmacokinetics, single doses
Format: in vivo, human
Settings: human, oral; 5 mg, IH, plasma, geometric mean, n = 7; read-out: AUC0-24
Experimental: Treatments were administered under fasted state. Dose levels were as follows: Subjects were randomized to 1 of 4 sequences. Blood samples (up to 5 mL per sample) were collected for PK analysis of Compound A and its metabolite(s). The actual time of sample collection was recorded. The PK samples of the subjects randomized to placebo treatment were not analyzed. Any remaining plasma PK samples were used to explore the presence of any additional metabolites and/or biomarkers. […]
property_label: AUC(0-t) (ng·h/mL)

{"columns": ["compound", "property_label", "unit_name", "reported_value"],
 "data": [
  ["CS(=O)(=O)N[C@H]1CCCN2C(=O)COc3ccccc3C3CCC(CC3)OCC12 (stereo partly shown)", "AUC(0-t)", "ng·h/mL", 78.9]
]}

###

Assay: Part 1 SAD: plasma pharmacokinetics after single oral dose
Assay type: in vivo, human
Conditions: human, plasma, oral; 8 mg single dose, geometric mean; read-out: C8 (concentration at 8-hour post dose)
Experimental: There were approximately 8 subjects per cohort. Dose levels were as follows: Blood samples (up to 5 mL per sample) were collected for PK analysis of Compound A and its metabolite(s). The actual time of sample collection was recorded. The PK samples of the subjects randomized to placebo treatment were not analyzed. […] Plasma and urine concentrations of Compound A and its metabolite(s) were measured using a validated high-performance liquid chromatography with tandem mass spectrometry. […]

{"columns": ["molecule", "concentration at 8 h, ng/mL"],
 "data": [
  ["CS(=O)(=O)N[C@H]1CCCN2C(=O)COc3ccccc3C3CCC(CC3)OCC12 (stereo partly shown) [Compound A]", 2.47]
]}

###

test: Oral PK of micronized Compound A, powder-in-capsule vs tablet, two particle sizes; format: in vivo, male Beagle dogs; conditions: male, Beagle, dog, plasma, 5 mg, one 5 mg tablet, 12 micron Dv90, read-out: Oral bioavailability (F %)
property_label: bioavailability (%)

{"columns": ["compound", "unit_name", "reported_value"],
 "data": [
  ["CS(=O)(=O)N[C@H]1CCCN2C(=O)COc3ccccc3C3CCC(CC3)OCC12 (stereo partly shown) [Compound A]", "%", 55]
]}

###

Assay: Oral PK of micronized Compound A, powder-in-capsule vs tablet, two particle sizes
Assay type: in vivo, male Beagle dogs
Details: male, Beagle, plasma, dog, 20 mg PIC and 4 tablets of 5 mg, 12 and 32 micron Dv90, read-out: AUC0-∞, range
Procedure: A non-GLP study was conducted in male Beagle dogs to compare the Compound A plasma exposure of powder-in-capsule (PIC) versus tablet formulation after the administration of single oral doses of micronized Compound A. Two different particle sizes were tested with the following objectives: • 1. […]
property_label: AUC(0-inf)

{"columns": ["compound", "reported_value"],
 "data": [
  ["CS(=O)(=O)N[C@H]1CCCN2C(=O)COc3ccccc3C3CCC(CC3)OCC12 (stereo partly shown) [Compound A]", "1570 to 1730 ng·h/mL"]
]}

###

assay: Oral PK of micronized Compound A, powder-in-capsule vs tablet, two particle sizes; format: in vivo, male Beagle dogs; details: male, Beagle, plasma, dog, 20 mg PIC and 4 tablets of 5 mg, 12 and 32 micron Dv90, read-out: Cmax, range
property_label: Cmax

{"columns": ["compound", "reported_value"],
 "data": [
  ["CS(=O)(=O)N[C@H]1CCCN2C(=O)COc3ccccc3C3CCC(CC3)OCC12 (stereo partly shown)", "230 to 270 ng/mL"]
]}

###

test: Part 1 SAD: plasma pharmacokinetics after single oral dose; type: in vivo, human; conditions: human, plasma, oral; 8 mg single dose, geometric mean
property_label: AUC(0-t) (ng·h/mL)

{"columns": ["molecule", "reported_value"],
 "data": [
  ["CS(=O)(=O)N[C@H]1CCCN2C(=O)COc3ccccc3C3CCC(CC3)OCC12 (stereo partly shown) [Compound A]", 81.3]
]}

###

test: Part 2 MAD: plasma pharmacokinetics, once daily for 10 days; format: in vivo, human; conditions: human, plasma, oral; 15 mg, Day 10, geometric mean; read-out: Vz/F

{"columns": ["molecule", "Vd/F, L"],
 "data": [
  ["CS(=O)(=O)N[C@H]1CCCN2C(=O)COc3ccccc3C3CCC(CC3)OCC12 (stereo partly shown)", 1700]
]}

###

assay: Part 2 MAD: plasma pharmacokinetics, once daily for 10 days; format: in vivo, human; settings: human, plasma, oral, 3 mg, Day 10, geometric mean; read-out: C8 (concentration at 8-hour postdose)

{"columns": ["compound", "unit_name", "concentration at 8 h"],
 "data": [
  ["CS(=O)(=O)N[C@H]1CCCN2C(=O)COc3ccccc3C3CCC(CC3)OCC12 (stereo partly shown)", "ng/mL", 1.39]
]}

###

experiment: Part 1 SAD: plasma pharmacokinetics after single oral dose; type: in vivo, human; settings: human, plasma, oral; 25 mg single dose, geometric mean; read-out: Vz/F

{"columns": ["molecule", "Vd/F"],
 "data": [
  ["CS(=O)(=O)N[C@H]1CCCN2C(=O)COc3ccccc3C3CCC(CC3)OCC12 (stereo partly shown) [Compound A]", "1650 L"]
]}

###

assay: Part 1 SAD: plasma pharmacokinetics after single oral dose; format: in vivo, human; settings: human, plasma, oral; 50 mg single dose, geometric mean; read-out: C8 (concentration at 8-hour post dose)

{"columns": ["compound", "unit_name", "concentration at 8 h"],
 "data": [
  ["CS(=O)(=O)N[C@H]1CCCN2C(=O)COc3ccccc3C3CCC(CC3)OCC12 (stereo partly shown)", "ng/mL", 7.83]
]}
